assay: Stability of ionizable cationic lipids under accelerated oxidation (H2O2/Fe(III)Cl, UHPLC-CAD), Example 29; type: physicochemical; conditions: individual lipids, 1% H2O2/100 μM Fe(III)Cl, 37° C., 48 h
MEASURED ATTRIBUTE: % of main lipid peak to To, 48 h. (%)

Study these solved cases before continuing.
| COMPOUND | RECORDED MEASUREMENT |
| --- | --- |
| CCCCCCCC/C=C\CCCCCCCC1(CCCCCCC/C=C\CCCCCCCC)OC[C@H](CCCN(C)C)O1 [KC3-17 (C8:1)] | 58.4 |
| CCCCCCCCCCCCCCCCCC1(CCCCCCCCCCCCCCCCC)OC[C@H](CCCN(C)C)O1 [KC3-17] | 91.8 |

[I] CCCCCCCC/C=C\CCCCCCCCC1(CCCCCCCC/C=C\CCCCCCCC)OC[C@H](CCCN(C)C)O1 [KC3-OA]
[II] CCCCCC/C=C\CCCCCCCCC1(CCCCCCCC/C=C\CCCCCC)OC[C@H](CCCN(C)C)O1 [KC3-PA]
[III] CCCCC/C=C\C/C=C\CCCCCCCCC1(CCCCCCCC/C=C\C/C=C\CCCCC)OCC(CCCN(C)C)O1 (centres unmarked) [KC3, reference compound]
List these items ordered by % of main lipid peak to To, 48 h., big to small. Reply format: the labels, ordered as requested.
I, II, III
